Data origin, for the record: PubChem BioAssay AID1195

Tested on: human maximum recommended daily dose, FDA database
Test: DSSTox (FDAMDD) FDA Maximum (Recommended) Daily Dose Database
Conditions: TherapeuticCategory: antiurolithic; active compounds read low
Experimental Readout: maximum recommended daily dose (mmol/kg-bw/day)

[
  {
    "Structure Notation": "O=c1[nH]cnc2[nH]ncc12",
    "Recorded Value": 0.0977
  }
]

====

Tested on: human maximum recommended daily dose, FDA database
Test: DSSTox (FDAMDD) FDA Maximum (Recommended) Daily Dose Database
Conditions: TherapeuticCategory: antiarryhthmic; active compounds read low
Text: The Food and Drug Administration (FDA) Center for Drug Evaluation and Research, Office of Pharmaceutical Science, Informatics and Computational Safety Analysis Staff's Maximum Recommended Daily Dose (FDAMDD) database contains values for over 1200 pharmaceuticals listed in Martindale: The Extra Pharmacopoeia (1973, 1983, and 1993) and The Physicians' Desk Reference (1995 and 1999). […]
Experimental Readout: maximum recommended daily dose (mmol/kg-bw/day)

[
  {
    "Compound": "CCC[N+]12[C@@H]3C[C@]45c6ccccc6N(C)[C@H]4[C@H]1C[C@H](C3[C@@H]5O)[C@H](CC)[C@H]2O (stereo partly specified)",
    "Tested Target": "human maximum recommended daily dose, FDA database",
    "Recorded Value": 0.0036
  }
]
